Cited source: ChEMBL document CHEMBL2046303

Test: Clearance in Sprague-Dawley rat at 5 mg/kg, iv
Type: ADME, organism-based
Set-up: dose 5 mg/kg, route intravenous
Details: in vivo
clearance for assorted molecules
Could you give me the number in mL/min/kg? Just the number is fine.

molecule: C[S+]([O-])c1cncc(CC(NC(=O)c2c(Cl)cc3c(c2Cl)CCN(C(=O)c2ccc4ccoc4c2)C3)C(=O)O)c1 (racemic)
measured_value: 121
//
molecule: CS(=O)(=O)c1cc(F)cc(C[C@H](NC(=O)c2c(Cl)cc3c(c2Cl)CCN(C(=O)c2ccc4ccoc4c2)C3)C(=O)O)c1
measured_value: 80.5
//
molecule: CS(=O)(=O)c1cccc(C[C@H](NC(=O)c2c(Cl)cc3c(c2Cl)CCN(C(=O)c2ccc4ccoc4c2)C3)C(=O)O)c1
measured_value: 139

Now for the molecule whose clearance we want.
Sure, the documented clearance for `NS(=O)(=O)c1cccc(C[C@H](NC(=O)c2c(Cl)cc3c(c2Cl)CCN(C(=O)c2ccc4ccoc4c2)C3)C(=O)O)c1` is 34.4
